I'd appreciate it if you could supply TGI values for the items below.
- Tested on: LXFL 529 NSCLC
- experiment_notes: NCI tumour cell line growth inhibition, 48 h

Illustrative cases are given below, each with its answer.
compound: CCOC(=O)c1cc2c(nc1N)-c1ncccc1CC2
TGI: > 100 µM
//
compound: O=C([O][Hg][CH2]C1COC([CH2][Hg][O]C(=O)c2ccccc2)CO1)c1ccccc1 (stereo not given)
TGI: 2.86 µM
//
compound: N=c1nc2n(cc1F)[C@@H]1O[C@H](CO)[C@@H](O)[C@@H]1O2
TGI: > 100 µM
//
compound: COC(=O)C1=C(C(=O)OC)C23CC1C1C(C(=O)OC)=C(C(=O)OC)C12C1C=CC3C2C(=O)OC(=O)C21 (stereo not given)
TGI: > 100 µM

// next entry
Entry NNC(=S)N/N=C(/C(=O)Nc1cc(Cl)ccc1Cl)C1C(=O)Nc2ccccc2S1=O (stereo not given) has what TGI?
> 100 µM

====

- System: T-47D breast
- experiment_notes: NCI tumour cell line growth inhibition, 48 h
readout_kind: TGI

Illustrative cases are given below, each with its answer.
compound: O=C(CCCN1CCC2(CC1)NC(=O)c1ccccc1O2)c1ccc(F)cc1
TGI: > 100 µM
--
compound: CCN1C(NN)=NS(=O)(=O)c2ccccc21
TGI: > 100 µM
--
compound: CSCCC(N)P(C)(=O)O (stereo not drawn)
TGI: > 100 µM
--
compound: COc1ccc(-c2nn(-c3cccc(NC(=O)c4ccc5c(c4)OCCO5)c3)cc2-c2ccncc2)cc1Cl
TGI: 47.7 µM
--
compound: Cc1nn(C(=O)c2ccc(Cl)cc2)c2c1C(c1cccc([N+](=O)[O-])c1)SC(N)=N2 (stereo not drawn)
TGI: > 10 µM
--
compound: CC(C)(C#N)c1cc(F)cc(C(=O)Nc2cc(Nc3ncccc3-c3ncnc4nc[nH]c34)ccc2F)c1
TGI: > 10 µM
--
compound: O=C(Nc1cccc(Oc2nnc(Cl)c3ccccc23)c1)Nc1ccc(Cl)c(C(F)(F)F)c1
TGI: 2.24 µM

// next entry
Param readout = TGI; param system = T-47D breast; param query = `CCOC(=O)[C@H](O)[C@@H](O)C(=O)NCc1ccc(C(=O)c2ccccc2)cc1` ; response: value
> 100 µM

====

- System: CAKI-1 renal
- experiment_notes: NCI tumour cell line growth inhibition, 48 h
readout_kind: TGI

molecule: Cc1ccc(S(=O)(=O)/N=C(\N)N(C)N=O)cc1
target_desc: CAKI-1 renal
readout_kind: TGI
measurement: > 100 µM
//
molecule: CSCCC(N)P(C)(=O)O (stereo not drawn)
target_desc: CAKI-1 renal
readout_kind: TGI
measurement: > 100 µM

// next entry
Entry `O=C(O)c1ccc([N+]2=Cn3c(nc4ccccc43)C2)cc1` has what TGI?
> 100 µM

====

- System: M14 melanoma
- experiment_notes: NCI tumour cell line growth inhibition, 48 h
I'd appreciate it if you could supply GI50 values for the items below.

Illustrative cases are given below, each with its answer.
compound: CCOC(=O)C1=C(C)NC2SC(=O)/C(=C\c3ccccc3O)N2C1c1ccccc1 (stereo unspecified)
GI50: 24 µM
//
compound: O=C(c1ccco1)c1nc2cc(F)ccc2[n+]([O-])c1C(F)(F)F
GI50: 17.6 µM

For the 5 compounds below, give their GI50 values.
1. CCOc1cc2c(cc1O)/C(=N\O)C[C@@H]1[C@@H]2CC[C@]2(C)[C@@H](O)CC[C@@H]12
2. CC(=O)OCC(=O)O[C@@H]1C[C@]2(C(C)C)O[C@@]1(C)[C@@H]1CC[C@@H](C)[C@H]1[C@@H]2OC(=O)/C=C/c1ccccc1
3. C=CC(C=O)C1(O)CCOC(=O)/C1=C\N (stereo unspecified)
4. C/C(=C\C1=C(Cl)C(=O)c2ccccc2C1=O)C(=O)O
5. O=C(CN1CCN(c2ccc(Cl)cc2)CC1)N1CCN(c2nnc(-c3ccc(Cl)cc3)c(-c3ccc(Cl)cc3)n2)CC1

1. 0.041 µM
2. 26.3 µM
3. > 100 µM
4. 17.7 µM
5. 28.2 µM
